# measurementTarget: human TRPV4 (Homo sapiens, UniProt Q9HBA0)
# Construct: expressed in transfected cells; host or cells: CHO-K1
# Sequence (Q9HBA0 whole entry): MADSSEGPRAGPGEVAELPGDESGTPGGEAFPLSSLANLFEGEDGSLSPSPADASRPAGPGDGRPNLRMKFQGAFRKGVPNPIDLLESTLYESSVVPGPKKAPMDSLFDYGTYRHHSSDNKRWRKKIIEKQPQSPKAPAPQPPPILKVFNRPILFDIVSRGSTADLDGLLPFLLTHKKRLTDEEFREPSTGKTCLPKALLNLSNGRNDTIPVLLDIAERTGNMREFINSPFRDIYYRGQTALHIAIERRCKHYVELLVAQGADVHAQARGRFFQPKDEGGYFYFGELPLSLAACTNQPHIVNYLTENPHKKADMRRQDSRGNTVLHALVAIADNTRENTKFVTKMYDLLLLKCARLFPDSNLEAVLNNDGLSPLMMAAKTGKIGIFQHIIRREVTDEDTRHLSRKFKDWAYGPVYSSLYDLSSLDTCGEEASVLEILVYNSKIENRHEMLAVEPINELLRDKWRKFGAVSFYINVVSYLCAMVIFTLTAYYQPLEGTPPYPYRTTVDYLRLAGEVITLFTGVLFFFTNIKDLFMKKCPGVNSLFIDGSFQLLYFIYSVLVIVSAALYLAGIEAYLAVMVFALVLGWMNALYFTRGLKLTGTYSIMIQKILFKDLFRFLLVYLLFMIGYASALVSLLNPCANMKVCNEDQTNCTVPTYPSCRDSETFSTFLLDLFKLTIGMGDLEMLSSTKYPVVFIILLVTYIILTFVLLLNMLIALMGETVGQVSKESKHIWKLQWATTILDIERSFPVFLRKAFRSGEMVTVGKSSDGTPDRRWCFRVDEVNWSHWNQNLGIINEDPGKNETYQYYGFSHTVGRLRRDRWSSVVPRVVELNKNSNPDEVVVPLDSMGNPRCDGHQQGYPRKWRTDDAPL
# assayDetails: Test Example 2 Measurement of TRPV4 inhibitory activity (IC50 value)
# Type: cell-based
# conditionsUsed: CHO-K1 cells stably expressing human TRPV4; DMEM 10% FBS, 5000 cells/well; final 0.15 μmol/L 4α-PDD
Threshold check on IC50: strictly below 4 nM is label 1; on or above 4 nM is label 0.

Before answering, review these 6 worked examples.
[[record]]
recordsmiles = "Cc1nc(C)c(-c2csc(Nc3ccc(C(=O)N4C[C@H]5CC[C@@H](C4)O5)cn3)n2)s1"
cat = "label 0"

[[record]]
recordsmiles = "Cc1nc(C)c(-c2csc(Nc3ccc(C(=O)N4[C@@H]5CC[C@H]4CSC5)cn3)n2)s1"
cat = "label 1"

[[record]]
recordsmiles = "Cc1nc(C)c(-c2csc(Nc3ccc(CN4[C@@H]5CC[C@H]4COC5)cn3)n2)s1"
cat = "label 0"

[[record]]
recordsmiles = "Cc1nc(C)c(-c2csc(Nc3ccc(C(=O)N4[C@@H]5CC[C@H]4COC5)c(F)n3)n2)s1"
cat = "label 0"

[[record]]
recordsmiles = "CO[C@H]1C[C@H]2CC[C@@H](C1)N2C(=O)c1ccc(Nc2nc(-c3sc(C)nc3C)cs2)nc1"
cat = "label 1"

[[record]]
recordsmiles = "Cc1nc(C)c(-c2csc(Nc3ccc(C(=O)N4[C@@H]5CC[C@H]4COC5)cn3)n2)s1"
cat = "label 0"


Field: next compound
Request: Is 4 nM strictly greater than the compound's reported IC50? compound: Cc1nc(C)c(-c2csc(Nc3ccc(C(=O)N4CCOc5ccccc54)cn3)n2)s1
Result: label 1
